# System: L6
# protocolDetails: Insulin mimetic activity in rat L6 cells assessed as stimulation of 2-deoxyglucose uptake at 1 nM by enzymatic method relative to untreated control
# Format: functional
Calls of active or inactive are those of the source. The calls are words filed in the database; no cut-off is given here.
measuredMetric: Activity

compound	result
C[C@@H]1O[C@@H](O[C@H]2C(O)O[C@H](CO)[C@@H](O)[C@@H]2O)[C@H](O)[C@H](O)[C@H]1O (some centres undefined) [NEOHESPERIDOSE]	200%
O=c1c(O[C@@H]2O[C@H](CO)[C@@H](O)[C@H](O)[C@H]2O)c(-c2ccc(O)cc2)oc2cc(O)cc(O)c12	inactive
O=c1c(O)c(-c2ccc(O)cc2)oc2cc(O)cc(O)c12	inactive
C[C@H]1O[C@H](O[C@H]2[C@H](Oc3c(-c4ccc(O)cc4)oc4cc(O)cc(O)c4c3=O)O[C@H](CO)[C@@H](O)[C@@H]2O)[C@@H](O)[C@@H](O)[C@@H]1O	200%
